Assay: Example 5: degradation over time of black currant anthocyanosides at 37° C., pH 7.0, with/without GSH (HPLC)
Format: physicochemical
Settings: Blank sample, pH 7.0, 37° C., 2:00 h
property: Peak Area

>  <compound>
C[C@@H]1O[C@@H](OC[C@H]2O[C@@H](Oc3cc4c(O)cc(O)cc4[o+]c3-c3cc(O)c(O)c(O)c3)[C@H](O)[C@@H](O)[C@@H]2O)[C@H](O)[C@H](O)[C@H]1O [Dp-3-O-Rut, Delphinidin-3-O-rutinoside]

>  <Peak Area>
1825.7

$$$$
>  <compound>
C[C@@H]1O[C@@H](OC[C@H]2O[C@@H](Oc3cc4c(O)cc(O)cc4[o+]c3-c3ccc(O)c(O)c3)[C@H](O)[C@@H](O)[C@@H]2O)[C@H](O)[C@H](O)[C@H]1O [Cn-3-O-Rut, Cyanidin-3-O-rutinoside]

>  <Peak Area>
1894.9

$$$$

I = OC[C@H]1O[C@@H](Oc2cc3c(O)cc(O)cc3[o+]c2-c2cc(O)c(O)c(O)c2)[C@H](O)[C@@H](O)[C@@H]1O [Dp-3O-Glc, Delphinidin 3-o-glucoside]
II = OC[C@H]1O[C@@H](Oc2cc3c(O)cc(O)cc3[o+]c2-c2ccc(O)c(O)c2)[C@H](O)[C@@H](O)[C@@H]1O [Cn-3O-Glc, Cyanidin 3-o-glucoside]
Input: # query: argmin of Peak Area over I and II Mark your answer with the label of the selected entry.
Output: II
